Entry source: the supplement of paper PMC7156485

System: TDF;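 further: TDF denotes transformed human dermal fibroblasts of mesenchymal origin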
Experiment: cell number relative to DMSO (% of DMSO); higher = more cells (less growth inhibition / toxicity)
Details: concentration: 10 µM; 24 h
measurementType: cell number
Please reply with the value in numeric form only.

**Query** What reported cell number corresponds to Nc1nc(=O)c2ncn(COC(CO)CO)c2[nH]1 on TDF?
**Result** 99.6

**Query** Another compound to look at: Cc1cn2cc(C(=O)N(C)CCO)cc(N[C@@H]3CCOc4cccc(C)c43)c2n1
**Result** 104

**Query** What about this compound? CCOC(=O)C1=C(C)NC(C)=C(C(=O)OCC)C1
**Result** 103

**Query** Moving on to the next compound: CC(=O)Nc1nc(C)c(S(=O)(=O)Nc2ccc(C(O)(C(F)(F)F)C(F)(F)F)cc2)s1
**Result** 109

**Query** And the next one, CCCCCCCCC=CCC=CCC=CCCCC(=O)O [5(Z), 8(Z), 11(Z)-Eicosatrienoic Acid] ?
**Result** 105
